assay.summary: Stabilization effect on perfume under daylight exposure (Test Examples 92 to 181)
Type: physicochemical
Parameters: key: ◯: no change; Δ: almost no change; x: change
reported.conditions: synthetic perfume Limonene oil; photostabilizer 0.05 wt %; daylight exposure (80 MJ)
result.type: odor determination

Below: 4 molecules and their reported odor determination.
{"molecule": "c1cc(N2CCOCC2)nnc1N1CCOCC1 [3,6-Dimorpholinopyridazine]", "observed.measurement": "◯"}
{"molecule": "COc1ccc(C(=O)c2ccccc2)c(O)c1 [2-Hydroxy-4-methoxybenzophenone, reference compound]", "observed.measurement": "Δ"}
{"molecule": "Oc1ccc(N2CCOCC2)nn1 [3-Hydroxy-6-morpholinopyridazine, 6-Morpholino-3-hydroxypyridazine]", "observed.measurement": "◯"}
{"molecule": "OCCNc1ccc(NCCO)nn1 [3,6-Bis(2-hydroxyethylamino)pyridazine, 3,6-bis(2-hydroxyethylamino)pyridazine]", "observed.measurement": "◯"}

Pending molecule:
get_value(item= COc1ccc(C(=O)CC(=O)c2ccc(C(C)(C)C)cc2)cc1 [4-tert-Butyl-4′-methoxydibenzoylmethane, reference compound] , readout=odor determination) returns Δ

====

assay.summary: Stabilization effect on perfume under daylight exposure (Test Examples 92 to 181)
Type: physicochemical
Parameters: key: ◯: no change; Δ: almost no change; x: change
reported.conditions: synthetic perfume Rose oxide; photostabilizer 0.2 wt %; daylight exposure (80 MJ)
result.type: odor determination

Below: 4 compounds and their reported odor determination.
{"compound": "COc1ccc(C(=O)CC(=O)c2ccc(C(C)(C)C)cc2)cc1 [4-tert-Butyl-4′-methoxydibenzoylmethane, reference compound]", "odor determination": "Δ"}
{"compound": "OCCN(CCO)c1cnnc(O)c1", "odor determination": "◯"}
{"compound": "Oc1nnccc1N1CCOCC1 [3-Hydroxy-4-morpholinopyridazine, 3-hydroxy-4-morpholinopyridazine]", "odor determination": "◯"}
{"compound": "Oc1cc(N2CCOCC2)cnn1 [3-Hydroxy-5-morpholinopyridazine, 3-hydroxy-5-morpholinopyridazine]", "odor determination": "◯"}

get_value(item= COc1ccc(C(=O)c2ccccc2)c(O)c1 [2-Hydroxy-4-methoxybenzophenone, reference compound] , readout=odor determination) returns Δ

====

assay.summary: Dye stabilization effect under daylight exposure (Test Examples 6-91)
Type: physicochemical
Parameters: key: color difference ΔE in Lab vs. color before daylight exposure
reported.conditions: dye Green 3 (Fast Green FCF) 0.001 wt %; photostabilizer 0.05 wt %; daylight exposure (80 MJ)
Please provide measured Δ E for the entries that follow.
I'd appreciate a reply containing only the number, no unit.

get_value(item= Oc1nnccc1N1CCOCC1 [3-Hydroxy-4-morpholinopyridazine, 3-hydroxy-4-morpholinopyridazine] , readout=Δ E) returns 0.48

get_value(item= Oc1nncc(N2CCCCC2)c1N1CCCCC1 [4,5-Dipiperidino-3-hydroxypyridazine] , readout=Δ E) returns 0.45

get_value(item= Oc1cc(N2CCOCC2)cnn1 [3-Hydroxy-5-morpholinopyridazine, 3-hydroxy-5-morpholinopyridazine] , readout=Δ E) returns 0.48

get_value(item= CCCCC(CC)COC(=O)/C=C/c1ccc(OC)cc1 (stereo not drawn) [p-Methoxycinnamate octyl, reference compound] , readout=Δ E) returns 1.64

get_value(item= COc1ccc(C(=O)c2ccccc2)c(O)c1 [2-Hydroxy-4-methoxybenzophenone, reference compound] , readout=Δ E) returns 0.75

get_value(item= c1cc(N2CCOCC2)nnc1N1CCOCC1 , readout=Δ E) returns 0.44

====

assay.summary: Drug stabilization effect under daylight exposure (Test Examples 182 to 211)
Format: physicochemical
reported.conditions: drug Dipotassium glycyrrhizinate 0.05 wt %; photostabilizer 0.05 wt %; daylight exposure (80 MJ); liquid chromatography
Please provide measured Remaining ratio (%) for the entries that follow.
Number in %, nothing else.

get_value(item= COc1ccc(C(=O)CC(=O)c2ccc(C(C)(C)C)cc2)cc1 [4-tert-Butyl-4′-methoxydibenzoylmethane, reference compound] , readout=Remaining ratio (%)) returns 96.6

get_value(item= COc1ccc(C(=O)c2ccccc2)c(O)c1 [2-Hydroxy-4-methoxybenzophenone, reference compound] , readout=Remaining ratio (%)) returns 97.8

get_value(item= Oc1cc(N2CCOCC2)cnn1 [3-Hydroxy-5-morpholinopyridazine, 3-hydroxy-5-morpholinopyridazine] , readout=Remaining ratio (%)) returns 98.9

get_value(item= Oc1nnccc1N1CCOCC1 [3-Hydroxy-4-morpholinopyridazine, 3-hydroxy-4-morpholinopyridazine] , readout=Remaining ratio (%)) returns 99.2

get_value(item= OCCNc1ccc(NCCO)nn1 [3,6-Bis(2-hydroxyethylamino)pyridazine, 3,6-bis(2-hydroxyethylamino)pyridazine] , readout=Remaining ratio (%)) returns 98.8
